test: Stability on storage under severe conditions at 60° C. in the air (remaining tetrahydrofolic acid content by HPLC, colour); type: physicochemical; details: 2 days at 60° C. in air
property: Remaining tetrahydrofolic acid content in comparison with the initial value (%)

compound="Nc1nc2c(c(=O)[nH]1)N[C@H](CNc1ccc(C(=O)N[C@@H](CCC(=O)O)C(=O)O)cc1)CN2 [amorphous (6R)-tetrahydrofolic acid, (6R)-tetrahydrofolic acid]" readout_unit=% observed_result=70.5
compound="Nc1nc2c(c(=O)[nH]1)N[C@@H](CNc1ccc(C(=O)N[C@@H](CCC(=O)O)C(=O)O)cc1)CN2 [Amorphous (6S)-tetrahydrofolic acid, (6S)-tetrahydrofolic acid]" readout_unit=% observed_result=60.4
compound="Nc1nc2c(c(=O)[nH]1)N[C@@H](CNc1ccc(C(=O)N[C@@H](CCC(=O)O)C(=O)O)cc1)CN2 [Crystalline (6S)-tetrahydrofolic acid, (6S)-tetrahydrofolic acid]" readout_unit=% observed_result=100.1

I. Nc1nc2c(c(=O)[nH]1)N[C@H](CNc1ccc(C(=O)N[C@@H](CCC(=O)O)C(=O)O)cc1)CN2 [Yamanouchi's crystalline (6R,S)-tetrahydrofolic acid]
II. Nc1nc2c(c(=O)[nH]1)N[C@H](CNc1ccc(C(=O)N[C@@H](CCC(=O)O)C(=O)O)cc1)CN2 (mixture of isomers) [amorphous (6R,S)-tetrahydrofolic acid, (6R,S)-tetrahydrofolic acid]
Exercise: Which value of Remaining tetrahydrofolic acid content in comparison with the initial value is greater, the one for I or the one for II ? Could you answer with the label of the item you picked?
Key: I
